- TESTED ON: PfTET3 (TET3 aminopeptidase; PfTET3Zn) (Pyrococcus furiosus)
- Construct: Recombinant, pET-41c; purified as for PhTET3; homododecamer (about 500 kDa); as purified contains two Zn2+ per active site
- Sequence (Q8TZW4 whole entry): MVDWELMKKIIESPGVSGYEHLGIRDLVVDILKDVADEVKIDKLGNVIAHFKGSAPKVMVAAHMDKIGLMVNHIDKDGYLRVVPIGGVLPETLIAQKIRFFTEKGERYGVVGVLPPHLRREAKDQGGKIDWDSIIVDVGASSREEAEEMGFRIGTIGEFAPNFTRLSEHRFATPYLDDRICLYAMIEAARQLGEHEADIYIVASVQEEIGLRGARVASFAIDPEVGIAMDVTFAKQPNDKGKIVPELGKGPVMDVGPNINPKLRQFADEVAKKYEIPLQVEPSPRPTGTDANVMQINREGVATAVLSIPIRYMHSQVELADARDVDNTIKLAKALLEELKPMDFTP
- TEST DETAILS: Lys-pNA hydrolysis, pNA release at […] nm, EDTA titration, biphasic fit
- SETUP CONDITIONS: 85 °C; 5 mM Lys-pNA; 0.1 M HEPES pH 7.2, 316 mM KCl; 10 nM enzyme; metal chelation (M1 Zn2+ removal), not direct binding; first site of two; partial step; read-out: EC50_1

[
  {
    "ITEM SMILES": "O=C(O)CN(CCN(CC(=O)O)CC(=O)O)CC(=O)O",
    "EC50 [µM]": 13
  }
]
